ASSAY_NOTES: SMARCA2 (BRM) function activators, confirmation, cell-based, luminescence, triplicate (AID 652260)
TEST_CONTEXT: MG213 cells, MMTV-luciferase with dexamethasone, overnight, at 9.1 µM, hits give high values, DMSO wells 0%, reference activator 100%, MG213 cells expressing E1A, Rb sequestered
Out of some 3,500 compounds screened, about 1,000 (29%) were called active. These entries were drawn from the full list.
Please go through the items and note down their activation.
Answers are plain numbers, in %.

[[record]]
molecule = "COc1ccc(/C(N)=N/OC(=O)Oc2ccccc2)cc1"
unit_abbrev = "%"
reading = -2.89


Answer for every listed entry: what is its activation? The entries follow.
1. Cc1nc(N=C(N)N)nc2c(C)cccc12
2. CCc1ccc(NC2Nc3cc(C)nn3S2)cc1 (configuration not stated)
3. COc1cccc(C(=O)Nc2cc3c(cc2Br)OCCCO3)c1
4. O=C(Nc1ccc2c(c1)CCC2)c1ccc(Br)s1
5. COC(=O)c1sc(-c2ccc(C(C)(C)C)cc2)cc1NC(=O)/C=C/C(=O)O

1: 40.3; 2: 8.74; 3: 9.25; 4: 10.8; 5: -3.23
